targetEntity: HLA-B*18:01
protocolNotes: IEDB peptide-MHC binding, purified MHC/direct/fluorescence; filed as Kd, often an IC50 or EC50 that approximates it; bounds were set here for any values at or beyond the usual limits of such assays
runParameters: source organism: Giardia lamblia ATCC 50803
attributeMeasured: Kd

[in] Return Kd for the following sequence: MHYGYNRAN
[out] ≥ 20 µM

###

targetEntity: HLA-A*03:01
protocolNotes: IEDB peptide-MHC binding, purified MHC/direct/fluorescence; filed as Kd, often an IC50 or EC50 that approximates it; bounds were set here for any values at or beyond the usual limits of such assays
runParameters: source organism: Salmonella enterica
pKd: −log10 of the molar value.
attributeMeasured: pKd

- sequenceString: "FPASHMATY"
  pKd: "≤ 4.70"

[in] Look up and report measured pKd for this entry: VPQTDAGVT
[out] ≤ 4.70
